biological target: PD-1/PD-L1 interaction (Homo sapiens); construct: purchased BPS Bioscience #71104 (PD-L1); #71109 (biotinylated PD-1); test: PD-1/PD-L1 competitive ELISA (Inhibitor Screening Assay Kit); type: binding; conditions: mean of three independent replicates, read-out: IC50, PD-1/PD-L1 blocking effect
Sequence (Q9NZQ7 19-239 limits assumed): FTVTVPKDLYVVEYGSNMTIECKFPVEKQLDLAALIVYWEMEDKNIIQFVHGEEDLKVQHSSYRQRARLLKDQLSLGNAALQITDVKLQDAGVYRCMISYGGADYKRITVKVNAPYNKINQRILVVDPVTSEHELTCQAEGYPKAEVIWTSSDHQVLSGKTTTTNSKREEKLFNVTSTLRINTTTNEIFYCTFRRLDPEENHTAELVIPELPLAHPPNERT
The following compounds are listed with their measured IC50 values.

Known IC50 results, listed for orientation:
> print(dat)
                         chemical.structure    result
1     O=C1C[C@@H](c2ccc(O)cc2)Oc2cc(O)ccc21  11800 nM
2  O=C1C[C@@H](c2ccc(O)c(O)c2)Oc2cc(O)cc(O)c21     40 nM
3  O=c1c(O)c(-c2ccc(O)c(O)c2)oc2cc(O)cc(O)c12   5710 nM

Alright, here's another compound for you.
Record request: IC50 value, item `O=c1c(O)c(-c2ccc(O)c(O)c2)oc2cc(O)ccc12`
40 nM
